target: T1, VEGFR-2-Fc (UniProt P35968 20-322); test: receptor-Fc IP
T1 construct: domain: first 3 Ig domains; conditioned supernatant of 293T cells; also called VEGFR-2-Fc fusion protein; not shown: Fc fragment of the pIg vector
T1 sequence (P35968 20-322): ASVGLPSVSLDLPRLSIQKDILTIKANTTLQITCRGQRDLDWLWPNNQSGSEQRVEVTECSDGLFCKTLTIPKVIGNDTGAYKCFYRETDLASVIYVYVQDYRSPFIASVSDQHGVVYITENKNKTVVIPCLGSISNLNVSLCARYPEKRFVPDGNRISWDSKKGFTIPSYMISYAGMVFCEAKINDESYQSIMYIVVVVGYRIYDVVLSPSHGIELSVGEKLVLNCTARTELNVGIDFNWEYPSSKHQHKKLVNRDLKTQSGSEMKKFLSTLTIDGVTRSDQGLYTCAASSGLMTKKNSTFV

{"columns": ["Binder", "binding result"],
 "data": [
  ["54-5 (ligand) AHYNTEILKSIDNEWRKTQCMPIETLVDIFQEFGVATNTFFKPSCVPLMRCGGCCNDEGLECVPTEESNITMQIMRIKPHQGQHIGEMSFANHTSCRCMSKLD", "no binding"],
  ["64-6 (ligand) GQNHHEVVKFMDVYQRSYCHPREVCIDVGKEFGVATNTFFKPSCVPLMRCGGCCNDEGLECMNTSTSYLSKTLFEIKPHQGQHIGEMSFANHTSCRCMSKLD", "no binding"],
  ["43-7 (ligand) AHYNTEILKFMDVYQRSYCHPREVCIDVGKEYPDEIEYIFKPPCVSVYRCGGCCNSEGLQCVPTEESNITMQIMRIKPHQGQHIGEMSFANHTSCRCMSKLD", "no binding"],
  ["24-4 (ligand) AHYNTEILKSIDNEWRKTQCMPREVCIDVGKEFGVATNTFFKPSCVPLMRCGGCCNSEGLQCMNTSTSYLSKTLFEIKPHQGQHIGEMSFLQHNKCECRPKKD", "no binding"],
  ["63-7 (ligand) GQNHHEVVKFMDVYQRSYCHPREVCIDVGKEYPDEIEYIFKPPCVSVYRCGGCCNSEGLQCVPTEESNITMQIMRIKPHQGQHIGEMSFANHTSCRCMSKLD", "binds"],
  ["72-8 (ligand) GQNHHEVVKSIDNEWRKTQCMPREVCIDVGKEFGVATNTFFKPPCVSVYRCGGCCNSEGLQCMNTSTSYLSKTLFEIKPHQGQHIGEMSFANHTSCRCMSKLD", "binds"],
  ["14-3 (ligand) GQNHHEVVKFMDVYQRSYCHPIETLVDIFQEFGVATNTFFKPSCVPLMRCGGCCNSEGLQCVPTEESNITMQIMRIKPHQGQHIGEMSFLQHNKCECRPKKD", "binds"],
  ["44-16 (ligand) AHYNTEILKFMDVYQRSYCHPREVCIDVGKEFGVATNTFFKPSCVPLMRCGGCCNSEGLQCMNTSTSYLSKTLFEITVPLSQGPKPVTISFANHTSCRCMSKLD", "no binding"]
]}
